- Tgt: Torsin-1A-interacting protein 1 (Homo sapiens)
- Assay Details: LAP1 binders from COS7 cell lysate, primary screen, small-molecule microarray, 635/667 nm fluorescence (AID 1116)
- Run Conditions: COS7-hLAP1 lysate binding, 635 nm fluorescence, higher = more signal
# label = bin(measured composite z-score), where bins are class 1 = under 0.05, class 2 = from 0.05 up to 0.8, class 3 = 0.8 and over

Some solved entries appear below for comparison.
1) CCc1cccc(NC(=O)O[C@H]2[C@H](OC(=O)Nc3ccccc3)[C@@H](OC(=O)Nc3ccccc3)[C@@H](OC)O[C@@H]2CO)c1 | class 3
2) C=C(C)[C@@H]1CC=C(C(O)C2C=CC3C(=O)NC(=O)C3N2Nc2ccccn2)CC1 (stereo not given in full) | class 3
3) CCCNC(=O)[C@@]1(Sc2ccc(C)cc2)CC(=O)N(Cc2ccccc2Cl)[C@@H]1c1ccc(CO)cc1 | class 2
4) CO[C@H]1O[C@H](CO)[C@@H](OC(=O)CCc2ccccc2)[C@@H]2OC(=O)[C@H](Cc3cccc(Br)c3)C/C=C/C[C@@H](Cc3cccc(Br)c3)C(=O)O[C@@H]12 | class 1
5) CC(C)=C1C(=O)C(c2ccccc2)=C2CN3C(=O)N(CCc4ccccc4)C(=O)[C@]3(Cc3ccccc3)[C@H]21 | class 1
6) C=CCC(OC(C)=O)[C@@H]1[C@@H](N(Cc2cc3ccccc3o2)C(=O)c2ccc(C)cc2)c2cc(OCCCO)ccc2N1C(=O)c1ccc2ccccc2n1 (stereo not given in full) | class 1

Input line: Please report the category associated with `Cc1ccc(S[C@]2(C(=O)O)CC(=O)N(Cc3cc(C(F)(F)F)cc(C(F)(F)F)c3)[C@@H]2c2ccc(CO)cc2I)cc1` , nothing else.
Output line: class 2

Input line: Which of the defined bands does the recorded composite z-score of `C=C(COC)/C(=C/C[C@H](OC(C)=O)c1ccc(OCCO)cc1)c1cnc2ccccc2c1` sit within?
Output line: class 2

Input line: # bin label for `Cc1ccc(S[C@]2(C(=O)O)CC(=O)N(Cc3ccccc3)[C@@H]2c2ccc(CO)cc2)cc1`
Output line: class 1

Input line: Entry `COC(=O)C[C@H]1O[C@]2(C(=O)N(C)c3ccccc32)[C@@H](C)[C@@H]1[Si](C)(C)c1ccc(OC)cc1` belongs to which category?
Output line: class 2

Input line: Which class does `CCN1C(C)=C(C(=O)OC)[C@@H](c2ccccc2)N2C(=O)[C@](O)(C(=O)OC)[C@@H](c3ccccc3)C(C(=O)c3ccccc3)=C12` fall in?
Output line: class 2

Input line: # bin label for CN1C(=O)C2C=CC(C(O)C3CC=CCC3)N(Nc3ccccc3)C2C1=O (stereo not given)
Output line: class 2

----------
Give measured composite z-score for each item. Keep answers brief.
- System: Fibrinogen (Alexa647-labelled)
- Assay Details: fibrinogen binders on compound microarrays, profiling panel, artefact control for SMM control-protein annotation, biochemical, small-molecule microarray, 635/667 nm fluorescence (AID 1131);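 also: z-score merges 667 nm fluorescence with per-spot signal-to-noise over triplicate slides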
- Run Conditions: fibrinogen-A647 binding fluorescence, higher = more signal
Answers are plain numbers.

Solved cases below.
1. COC(=O)Cn1c(C(=O)N2CCCC2)cc2c1C[C@H]1CN(C(=O)c3ccccc3)[C@@](Cc3ccccc3)(C(=O)OC)[C@@H]21 | 1.01
2. CCOC(=O)C[C@H]1[C@H](OC(=O)c2ccccc2-c2ccccc2)[C@@H](NC(=O)C2CCCCC2)c2cc(OCCCO)ccc2N1C(=O)c1ccccc1 | 0.334
3. CC(C)(C)OC(=O)CC[C@]1(C(=O)NCCN2CCOCC2)N=C(c2ccc(OCCCO)cc2)O[C@H]1c1ccccc1CN=[N+]=[N-] | 0.75
4. O=C1C[C@@](C(=O)NC2CC2)(c2ccc([N+](=O)[O-])cc2)[C@@H](c2ccc(CO)cc2I)N1CC12CC3CC(CC(C3)C1)C2 | 0.751
5. C[C@@H]1NC(=O)CC=C[C@@H](C)[C@@H]2C=C[C@H](O)[C@@H](COC(=O)[C@H](C)NC(=O)CC=C[C@@H](C)[C@@H]3C=C[C@H](O)[C@@H](COC1=O)O3)O2 | -0.917
6. C=CCOC(=O)[C@@H]1[C@H]2C(=O)O[C@H](c3ccccc3)[C@H](c3ccccc3)N2[C@H](c2ccc(OCCOC(=O)[C@H]3C[C@H]4C(=O)N5CCC[C@H]5C(=O)N4[C@H]3c3ccc(O)cc3)cc2)[C@@]12C(=O)Nc1ccccc12 | 0.81
7. CN1CCC(CCCO)=CC1C1CC1 (centres undefined) | -0.146
8. CC(=O)NCCCC[C@@H]1NC(=O)[C@@H]2C[C@H](C(=O)NCc3ccc(F)cc3)[C@H](c3cccc(OCCO)c3)N2C1=O | 0.371

Items follow; give composite z-score for each.
1. COc1ccc([Si](C)(C)[C@H]2[C@H](CC(=O)N(CCO)Cc3ccccc3)O[C@@]3(C(=O)N(C)c4ccccc43)[C@@H]2C)cc1
2. C=CCC(OC(C)=O)[C@@H]1[C@@H](N(Cc2cccc3ccccc23)C(=O)Cc2ccc(F)cc2)c2cc(OCCCO)ccc2N1C(=O)Cc1ccc2ccccc2c1 (some centres undefined)

Output line:
-0.0177
-0.175

// input: 4 compounds below; output: composite z-score for each
1. CO[C@H]1COC(=O)CC=C[C@H](C)[C@@H](OC)COC(=O)CC=C[C@@H]1C
2. O=C(NCc1ccccc1)[C@@]1(Cc2ccccc2)COC(c2ccc(OCCCO)cc2)=N1
3. Cc1ccc(N2C(=O)c3ccccc3[C@@H](C(=O)NCC(F)(F)F)[C@@H]2c2ccc(CO)cc2)nc1
4. C=C[C@H](OC)[C@@H](OC(=O)Nc1ccc(SC)cc1)c1ccc(OC)c(O)c1

Output line:
[-0.706, 0.838, -1.4, -0.666]

----------
Kindly state z-score for each of the entries shown.
- Assay Details: A549 lung cancer cell viability effects, profiling panel, resazurin fluorescence, 24 h, PK04 Diversity Set (AID 1171); also: test concentration not given here
- Run Conditions: higher = more signal, called active from +8 up or from −8 down
One number for each entry.

1. Cc1ccc(S[C@]2(C(=O)NCCN3CCOCC3)CC(=O)N(C3Cc4ccccc4C3)[C@@H]2c2ccc(CO)cc2I)cc1 | 0.842

For every item below, please supply its z-score.
1. COCCOC(=O)N1C(=O)[C@@]2(c3cc(C#CCCO)ccc31)[C@H](C(=O)N1CCCCCCC1)[C@H]1C(=O)O[C@H](c3ccccc3)[C@H](c3ccccc3)N1[C@@H]2c1ccc(O)cc1
2. C=CCNC(=O)[C@H]1[C@@H]2C(=O)O[C@@H](c3ccccc3)[C@@H](c3ccccc3)N2[C@@H](c2ccc(O)cc2)[C@]12C(=O)Nc1ccc(C#CCNC(N)=O)cc12
3. C=C(CCCC)C(=O)CC[C@@H](OC(=O)c1cccnc1)c1cccc(OCCO)c1
4. CCN1C(C)=C(C(=O)OC)[C@@H](c2ccccc2)N2C(=O)[C@](O)(C(=O)OC)[C@@H](c3ccccc3)C(C(=O)c3ccccc3)=C12
5. COc1cc(CO)cc(I)c1O[C@H]1C=C(C(=O)NCCO)C[C@@H](N(CC2CCCCC2)C(=O)c2cc3ccccc3oc2=O)[C@@H]1O

Output line:
0.641
0.999
0.468
2.64
-0.206

----------
- Tgt: Pro-neuregulin-1, membrane-bound isoform (Homo sapiens)
- Assay Details: NRG1 binders on small-molecule microarrays, primary screen, psychiatric disease protein project, biochemical, small-molecule microarray, fluorescence 635/667 (AID 1075);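 also: score combines 667 nm spot fluorescence with signal to noise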
- Run Conditions: NRG1 binding, 635 nm fluorescence, higher = more signal
Metric Name: composite z-score
One number for each entry.

1) COc1ccc(NN2C(C(O)c3cc(OC)c(OC)c(OC)c3)C=CC3C(=O)N(C4CCCCC4)C(=O)C32)cc1 (stereo not drawn) | 1.09
2) [N-]=[N+]=NCc1ccccc1C[C@]1(C(=O)N2CCCCC2)N=C(c2ccc(OCCCO)cc2)O[C@H]1c1ccccc1CN=[N+]=[N-] | 1.63

Fill in composite z-score for each of the 6 molecules listed.
1. CN1CCC(CCCO)=CC1C1CC1 (stereo not drawn)
2. C=C(CCCC)/C(=C/C[C@H](OC(=O)c1ccncc1)c1cccc(OCCO)c1)c1cc(C(=O)OC)ccc1OC
3. COc1ccc(C(=O)Nc2ccc(CN3C(=O)[C@]4(O[C@H](CCn5cc(CCO)nn5)[C@@H]([Si](C)(C)c5ccc(OC)cc5)[C@@H]4C)c4ccccc43)cc2)cc1
4. C[C@@H]1C=CCC(=O)OC[C@H]2O[C@@H](C=C[C@@H]2O)[C@H](C)C=CCC(=O)OC[C@H]2O[C@H]1C=C[C@@H]2O
5. C=C(CCCC)/C(=C/C[C@@H](OC(=O)c1ccncc1)c1cccc(OCCO)c1)c1cc(C(=O)OC)ccc1OC
6. C=C(CCCC)/C(=C/C[C@@H](OC(=O)c1ccncc1)c1ccc(CO)o1)c1cnc2ccccc2c1

Output line:
-0.345
0.0742
0.485
-0.0241
1.38
0.786
